# reported LD0; entries follow
Test system: rats
TEST_SUMMARY: Acute toxicity, lethal doses two days after intraperitoneal treatment
Type: in vivo
PROTOCOL_CONDITIONS: rat
Answer in mg/kg, number only, no unit symbol.

Worked cases, answers included:
{"COMPOUND": "O=C(OCCN1CCCC1)C1CC1(c1ccccc1)c1ccccc1 (centres unmarked)", "SYSTEM": "rats", "READOUT_UNITS": "mg/kg", "LD0": 128}
{"COMPOUND": "CC1CCN(CCOC(=O)C2CC2(c2ccccc2)c2ccccc2)CC1 (centres unmarked)", "SYSTEM": "rats", "READOUT_UNITS": "mg/kg", "LD0": 64}

Then this compound:
Ask | Reported LD0, compound CN(C)CCOC(=O)C1CC1(c1ccccc1)c1ccccc1 (centres unmarked) : ____
Reply | 128

* * *

Tested on: rats
TEST_SUMMARY: Acute toxicity, lethal doses two days after intraperitoneal treatment
Type: in vivo
PROTOCOL_CONDITIONS: rat
# reported LD100; entries follow
Answer in mg/kg, number only, no unit symbol.

{"MOLECULE": "CC1CCCN(CCOC(=O)C2CC2(c2ccccc2)c2ccccc2)C1 (centres unmarked)", "LD100 (mg/kg)": 256}
{"MOLECULE": "CC1CCCC(C)N1CCOC(=O)C1CC1(c1ccccc1)c1ccccc1 (centres unmarked)", "LD100 (mg/kg)": 128}
{"MOLECULE": "CN(C)CCOC(=O)C1CC1(c1ccccc1)c1ccccc1 (centres unmarked)", "LD100 (mg/kg)": 256}

Then this molecule:
Ask | Reported LD100, molecule Cc1ccc(C2(c3ccc(C)cc3)CC2C(=O)OCCN2CCCC2)cc1 (centres unmarked) : ____
Reply | 256

* * *

System: rats
TEST_SUMMARY: Acute toxicity, lethal doses two days after intraperitoneal treatment
Assay type: in vivo
PROTOCOL_CONDITIONS: rat
# reported LD100; entries follow
Answer in mg/kg, number only, no unit symbol.

Worked cases, answers included:
{"COMPOUND": "O=C(OCCN1CCCCC1)C1CC1(c1ccc(Cl)cc1)c1ccc(Cl)cc1 (stereo not drawn)", "EXPERIMENTAL_ENDPOINT": "LD100", "READOUT_UNITS": "mg/kg", "EXPERIMENTAL_RESULT": 256}
{"COMPOUND": "CN1CCN(CCOC(=O)C2CC2(c2ccccc2)c2ccccc2)CC1 (stereo not drawn)", "EXPERIMENTAL_ENDPOINT": "LD100", "READOUT_UNITS": "mg/kg", "EXPERIMENTAL_RESULT": 128}
{"COMPOUND": "Cc1ccc(C2(c3ccc(C)cc3)CC2C(=O)OCCN2CCCCC2)cc1 (stereo not drawn)", "EXPERIMENTAL_ENDPOINT": "LD100", "READOUT_UNITS": "mg/kg", "EXPERIMENTAL_RESULT": 512}
{"COMPOUND": "CC1CCN(CCOC(=O)C2CC2(c2ccccc2)c2ccccc2)CC1 (stereo not drawn)", "EXPERIMENTAL_ENDPOINT": "LD100", "READOUT_UNITS": "mg/kg", "EXPERIMENTAL_RESULT": 256}
{"COMPOUND": "O=C(OCCOCCN1CCCCCC1)C1CC1(c1ccccc1)c1ccccc1 (stereo not drawn)", "EXPERIMENTAL_ENDPOINT": "LD100", "READOUT_UNITS": "mg/kg", "EXPERIMENTAL_RESULT": 128}
{"COMPOUND": "O=C(OCCN1CCCCC1)C1CC1(c1ccccc1)c1ccccc1 (stereo not drawn)", "EXPERIMENTAL_ENDPOINT": "LD100", "READOUT_UNITS": "mg/kg", "EXPERIMENTAL_RESULT": 128}
{"COMPOUND": "O=C(OCCN1CCCCCC1)C1CC1(c1ccccc1)c1ccccc1 (stereo not drawn)", "EXPERIMENTAL_ENDPOINT": "LD100", "READOUT_UNITS": "mg/kg", "EXPERIMENTAL_RESULT": 128}
{"COMPOUND": "O=C(OCCOCCN1CCCCC1)C1CC1(c1ccccc1)c1ccccc1 (stereo not drawn)", "EXPERIMENTAL_ENDPOINT": "LD100", "READOUT_UNITS": "mg/kg", "EXPERIMENTAL_RESULT": 256}

Ask | Lab request: please report LD100 under test system rats for CN1CCN(CCOCCOC(=O)C2CC2(c2ccccc2)c2ccccc2)CC1 (stereo not drawn)
Reply | 128

* * *

# reported LD0; entries follow
Test system: rats
TEST_SUMMARY: Acute toxicity, lethal doses two days after intraperitoneal treatment
Format: in vivo
PROTOCOL_CONDITIONS: rat
Answer in mg/kg, number only, no unit symbol.

Worked cases, answers included:
{"MOLECULE": "CN1CCN(CCOC(=O)C2CC2(c2ccccc2)c2ccccc2)CC1 (centres unmarked)", "SYSTEM": "rats", "READOUT_UNITS": "mg/kg", "LD0": 64}
{"MOLECULE": "CC1CCCC(C)N1CCOC(=O)C1CC1(c1ccccc1)c1ccccc1 (centres unmarked)", "SYSTEM": "rats", "READOUT_UNITS": "mg/kg", "LD0": 32}
{"MOLECULE": "O=C(OCCN1CCCCC1)C1CC1(c1ccccc1)c1ccccc1 (centres unmarked)", "SYSTEM": "rats", "READOUT_UNITS": "mg/kg", "LD0": 64}
{"MOLECULE": "O=C(OCCOCCN1CCCCCC1)C1CC1(c1ccccc1)c1ccccc1 (centres unmarked)", "SYSTEM": "rats", "READOUT_UNITS": "mg/kg", "LD0": 64}
{"MOLECULE": "Cc1ccc(C2(c3ccc(C)cc3)CC2C(=O)OCCN2CCCC2)cc1 (centres unmarked)", "SYSTEM": "rats", "READOUT_UNITS": "mg/kg", "LD0": 128}
{"MOLECULE": "Cc1ccc(C2(c3ccc(C)cc3)CC2C(=O)OCCN2CCCCC2)cc1 (centres unmarked)", "SYSTEM": "rats", "READOUT_UNITS": "mg/kg", "LD0": 256}

Ask | Lab request: please report LD0 under test system rats for O=C(OCCN1CCOCC1)C1CC1(c1ccccc1)c1ccccc1 (centres unmarked)
Reply | 128

Ask | Lab request: please report LD0 under test system rats for COc1ccc(C2(c3ccc(OC)cc3)CC2C(=O)OCCN2CCCCC2)cc1 (centres unmarked)
Reply | 128

Ask | Lab request: please report LD0 under test system rats for O=C(OCCOCCN1CCCC1)C1CC1(c1ccccc1)c1ccccc1 (centres unmarked)
Reply | 32

Ask | Lab request: please report LD0 under test system rats for O=C(OCCOCCN1CCCCC1)C1CC1(c1ccccc1)c1ccccc1 (centres unmarked)
Reply | 64

Ask | Lab request: please report LD0 under test system rats for CC1CCCN(CCOC(=O)C2CC2(c2ccccc2)c2ccccc2)C1 (centres unmarked)
Reply | 64

Ask | Lab request: please report LD0 under test system rats for O=C(OCCN1CCCCC1)C1CC1(c1ccc(Cl)cc1)c1ccc(Cl)cc1 (centres unmarked)
Reply | 128

Ask | Lab request: please report LD0 under test system rats for CN1CCN(CCOCCOC(=O)C2CC2(c2ccccc2)c2ccccc2)CC1 (centres unmarked)
Reply | 64

Ask | Lab request: please report LD0 under test system rats for O=C(OCCN1CCCCCC1)C1CC1(c1ccccc1)c1ccccc1 (centres unmarked)
Reply | 64

* * *

System: rats
TEST_SUMMARY: Acute toxicity, lethal doses two days after intraperitoneal treatment
Assay type: in vivo
PROTOCOL_CONDITIONS: rat
# reported LD100; entries follow
Answer in mg/kg, number only, no unit symbol.

Worked cases, answers included:
{"COMPOUND": "O=C(OCCN1CCCC1)C1CC1(c1ccccc1)c1ccccc1 (stereo not shown)", "LD100, mg/kg": 256}
{"COMPOUND": "O=C(OCCN1CCOCC1)C1CC1(c1ccccc1)c1ccccc1 (stereo not shown)", "LD100, mg/kg": 256}
{"COMPOUND": "O=C(OCCOCCN1CCCC1)C1CC1(c1ccccc1)c1ccccc1 (stereo not shown)", "LD100, mg/kg": 128}

Then this compound:
Ask | Reported LD100, compound COc1ccc(C2(c3ccc(OC)cc3)CC2C(=O)OCCN2CCCCC2)cc1 (stereo not shown) : ____
Reply | 512
